measured_target: T1, human C5 (human, UniProt P01031 19-673; P01031 678-1676, Beta and alpha chains are disulfide-linked and the protein is glycosylated.)
T1 construct: Either in-house recombinant C5 or plasma derived C5 (CALBIOCHEM) was used; also called recombinant human C5; plasma derived human C5
procedure_summary: Biacore, captured antibody, pH 7.4, 37 C;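 note: biacore binding response of anti-C5 antibody light chain variants captured on chip with human C5 injected, ACES running buffer containing 1.2 mM CaCl₂, parent light chain antibody set to 100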
Doc: threshold 40% (exclusive). Items with % binding (parent = 100) beneath it return true; others return false.

Strictly below 40% in % binding (parent = 100)? CFP0017 17L 53T (antibody, V domains shown) VH: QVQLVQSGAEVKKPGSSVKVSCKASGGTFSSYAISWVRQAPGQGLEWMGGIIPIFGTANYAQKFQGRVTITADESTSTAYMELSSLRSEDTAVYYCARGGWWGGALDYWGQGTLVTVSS VL: DIQMTQSPSSLSASVGDRVTITCRASQSIEDDLAWYQQKPGKAPKLLIYHASTLQSGVPSRFSGSGSGTDFTLTISSLQPEDFATYYCQQSDSYPLTFGQGTKVEIK
false

A record lists CFP0021 21L 31H (antibody, V domains shown) VH: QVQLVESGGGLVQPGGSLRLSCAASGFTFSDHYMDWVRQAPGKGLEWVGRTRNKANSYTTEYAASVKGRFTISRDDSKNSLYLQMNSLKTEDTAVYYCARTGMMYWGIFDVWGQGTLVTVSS VL: DIQMTQSPSSLSASVGDRVTITCRASQSIEHDLAWYQQKPGKAPKLLIYHASTLQSGVPSRFSGSGSGTDFTLTISSLQPEDFATYYCQQHDSYPLTFGQGTKVEIK . Is its % binding (parent = 100) below 40%?
false

Report whether reported % binding (parent = 100) is lower than 40% (strictly) for CFP0018 18L 92Q (antibody, V domains shown) VH: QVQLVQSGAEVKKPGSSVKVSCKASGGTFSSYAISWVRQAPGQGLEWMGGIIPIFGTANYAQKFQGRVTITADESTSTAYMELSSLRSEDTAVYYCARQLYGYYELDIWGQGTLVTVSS VL: DIQMTQSPSSLSASVGDRVTITCRASQSISDDLAWYQQKPGKAPKLLIYEASSLQSGVPSRFSGSGSGTDFTLTISSLQPEDFATYYCQQYQSYPLTFGQGTKVEIK
false

is_below(% binding (parent = 100), 40%) for CFP0015 15L 30A (antibody, V domains shown) VH: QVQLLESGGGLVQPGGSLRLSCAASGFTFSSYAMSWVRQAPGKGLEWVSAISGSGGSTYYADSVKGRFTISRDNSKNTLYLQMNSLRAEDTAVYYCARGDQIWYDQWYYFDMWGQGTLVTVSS VL: DIQMTQSPSSLSASVGDRVTITCRASQSIADDLAWYQQKPGKAPKLLIYEASNLQSGVPSRFSGSGSGTDFTLTISSLQPEDFATYYCQQYDSSPLTFGQGTKVEIK ?
true

Take the binder CFP0017 17L 96Y (antibody, V domains shown) VH: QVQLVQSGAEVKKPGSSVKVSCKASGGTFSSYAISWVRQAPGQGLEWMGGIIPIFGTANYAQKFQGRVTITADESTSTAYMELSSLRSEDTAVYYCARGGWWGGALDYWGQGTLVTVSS VL: DIQMTQSPSSLSASVGDRVTITCRASQSIEDDLAWYQQKPGKAPKLLIYHASSLQSGVPSRFSGSGSGTDFTLTISSLQPEDFATYYCQQSDSYPYTFGQGTKVEIK and say whether its % binding (parent = 100) is less than 40%.
true

I wonder whether CFP0015 15L 91R (antibody, V domains shown) VH: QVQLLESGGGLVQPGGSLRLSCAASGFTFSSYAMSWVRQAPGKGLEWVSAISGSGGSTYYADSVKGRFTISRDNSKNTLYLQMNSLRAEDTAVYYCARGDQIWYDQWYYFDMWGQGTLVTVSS VL: DIQMTQSPSSLSASVGDRVTITCRASQSIEDDLAWYQQKPGKAPKLLIYEASNLQSGVPSRFSGSGSGTDFTLTISSLQPEDFATYYCQQRDSSPLTFGQGTKVEIK has % binding (parent = 100) below 40%. Can you tell?
true

is_below(% binding (parent = 100), 40%) for CFP0015 15L 91T (antibody, V domains shown) VH: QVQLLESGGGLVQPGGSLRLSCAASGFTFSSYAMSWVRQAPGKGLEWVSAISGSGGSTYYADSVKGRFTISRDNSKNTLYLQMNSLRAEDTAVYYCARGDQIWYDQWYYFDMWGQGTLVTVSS VL: DIQMTQSPSSLSASVGDRVTITCRASQSIEDDLAWYQQKPGKAPKLLIYEASNLQSGVPSRFSGSGSGTDFTLTISSLQPEDFATYYCQQTDSSPLTFGQGTKVEIK ?
false

Given CFP0018 18L 96M (antibody, V domains shown) VH: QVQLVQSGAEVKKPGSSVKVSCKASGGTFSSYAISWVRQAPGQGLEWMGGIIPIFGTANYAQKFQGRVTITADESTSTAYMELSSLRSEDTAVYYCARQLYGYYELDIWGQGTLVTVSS VL: DIQMTQSPSSLSASVGDRVTITCRASQSISDDLAWYQQKPGKAPKLLIYEASSLQSGVPSRFSGSGSGTDFTLTISSLQPEDFATYYCQQYNSYPMTFGQGTKVEIK , is recorded % binding (parent = 100) strictly lower than 40%?
false

Dear colleague, could you confirm whether % binding (parent = 100) of CFP0018 18L 30F (antibody, V domains shown) VH: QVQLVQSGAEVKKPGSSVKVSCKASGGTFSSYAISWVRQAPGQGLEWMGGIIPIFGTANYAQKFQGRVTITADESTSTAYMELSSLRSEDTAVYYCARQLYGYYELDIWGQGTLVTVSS VL: DIQMTQSPSSLSASVGDRVTITCRASQSIFDDLAWYQQKPGKAPKLLIYEASSLQSGVPSRFSGSGSGTDFTLTISSLQPEDFATYYCQQYNSYPLTFGQGTKVEIK falls below 40%? Thanks.
false
